// data source = the RNAGym collection of RNA variant scans (doi:10.1073/pnas.2313332121)

B1: TPR t1 (parent)
chain: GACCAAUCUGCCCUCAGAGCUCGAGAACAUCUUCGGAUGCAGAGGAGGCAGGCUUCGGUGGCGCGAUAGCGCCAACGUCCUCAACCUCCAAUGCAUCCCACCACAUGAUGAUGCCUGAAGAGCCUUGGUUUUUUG

- Variants of: B1
- Test protocol: polymerase ribozyme fitness, log enrichment relative to wild type (log ratio); higher = more active; in vitro selection for triplet polymerase activity
Everything with polymerase ribozyme fitness (log ratio) lower than -5 is rule not met; everything else, including exactly -5, is rule met.

For orientation, consider the following solved cases.
Mutant code	Qualitative label
G45U U130G	rule met
C12U C13U C20A G47C C86U	rule met
C12G C15U	rule met
A18U A24G C72U C73U	rule met
A2G G19U C34U G47A C49A C80A G93C G120U	rule not met

Please indicate if the recorded polymerase ribozyme fitness (log ratio) for A29U G61A C73U meets or exceeds -5.
rule met

Please indicate if the recorded polymerase ribozyme fitness (log ratio) for C34U A50U C102U U109A C124U meets or exceeds -5.
rule not met

Please indicate if the recorded polymerase ribozyme fitness (log ratio) for G42U G69C G120U meets or exceeds -5.
rule met
